Listing of recorded logFC.mWT.over.Lux by entry.
Molecular target: mouse ADAMTS7 (Mus musculus, UniProt Q68SA9)
Construct: Full-length mouse Adamts7 1-1857 (Uniprot Q68SA9, WT or E373Q catalytic mutant); expressed in transfected cells; host or cells: Human Coronary Artery Smooth Muscle Cells (HCA-SMC, Lonza), adenovirus 50 MOI
Sequence (Q68SA9 221-1657): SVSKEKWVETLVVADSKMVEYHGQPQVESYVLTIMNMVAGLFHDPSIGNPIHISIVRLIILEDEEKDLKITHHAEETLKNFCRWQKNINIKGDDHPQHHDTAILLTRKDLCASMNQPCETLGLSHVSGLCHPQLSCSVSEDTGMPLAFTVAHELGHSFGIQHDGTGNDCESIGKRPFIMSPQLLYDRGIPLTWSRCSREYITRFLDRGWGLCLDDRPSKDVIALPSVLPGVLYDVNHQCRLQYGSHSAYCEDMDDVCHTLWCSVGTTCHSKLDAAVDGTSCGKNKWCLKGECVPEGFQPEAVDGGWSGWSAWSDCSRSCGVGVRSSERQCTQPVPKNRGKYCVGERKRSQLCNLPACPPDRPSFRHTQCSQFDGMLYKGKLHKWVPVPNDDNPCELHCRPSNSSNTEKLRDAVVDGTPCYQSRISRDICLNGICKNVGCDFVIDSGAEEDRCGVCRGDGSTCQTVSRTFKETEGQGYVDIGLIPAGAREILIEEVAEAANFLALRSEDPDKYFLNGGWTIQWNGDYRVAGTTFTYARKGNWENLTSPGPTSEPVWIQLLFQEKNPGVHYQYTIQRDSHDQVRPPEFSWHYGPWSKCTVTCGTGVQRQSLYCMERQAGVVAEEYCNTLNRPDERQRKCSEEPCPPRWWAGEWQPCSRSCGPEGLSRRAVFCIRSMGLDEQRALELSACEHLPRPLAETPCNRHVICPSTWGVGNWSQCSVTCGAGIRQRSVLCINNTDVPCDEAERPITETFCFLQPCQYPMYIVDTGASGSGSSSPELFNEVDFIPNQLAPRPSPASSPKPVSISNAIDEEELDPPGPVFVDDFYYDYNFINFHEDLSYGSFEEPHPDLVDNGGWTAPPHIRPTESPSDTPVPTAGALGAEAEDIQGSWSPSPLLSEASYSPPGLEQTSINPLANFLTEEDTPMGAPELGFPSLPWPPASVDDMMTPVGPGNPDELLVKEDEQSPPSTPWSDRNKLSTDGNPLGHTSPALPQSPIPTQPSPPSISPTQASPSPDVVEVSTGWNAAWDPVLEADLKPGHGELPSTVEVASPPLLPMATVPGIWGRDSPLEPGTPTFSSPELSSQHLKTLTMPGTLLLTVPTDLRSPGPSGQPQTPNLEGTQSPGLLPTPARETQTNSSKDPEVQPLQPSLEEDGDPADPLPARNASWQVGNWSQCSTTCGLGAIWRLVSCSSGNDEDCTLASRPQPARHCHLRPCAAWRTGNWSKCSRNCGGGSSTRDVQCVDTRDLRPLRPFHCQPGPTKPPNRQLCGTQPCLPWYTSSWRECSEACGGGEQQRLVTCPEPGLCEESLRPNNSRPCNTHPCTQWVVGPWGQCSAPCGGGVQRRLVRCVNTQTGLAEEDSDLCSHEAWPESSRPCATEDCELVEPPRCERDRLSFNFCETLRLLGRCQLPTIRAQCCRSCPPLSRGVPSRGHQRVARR
Experiment: TMT10 TAILS N-terminomics, SMC1 experiment (Ad-mADAMTS7 WT vs EQ vs Luc, technical replicates, trypsin digest)
Assay type: cell-based
Details: TAILS neo-N-terminal peptide abundance; log fold change, Ad-mADAMTS7 WT over Luc
Square brackets hold non-standard residues; d marks the D form. Ends that are not written are not given here. pGlu = O=C1CC[C@@H](C(=O)O)N1
observed property: logFC.mWT.over.Lux

substance="LTBP1_546 (HVYPVAAKTQLGR; listed as Homo sapiens)" observed_property=logFC.mWT.over.Lux assay_result=3.62
substance="CDC37_43 (FQKEKEELDR; listed as Homo sapiens)" observed_property=logFC.mWT.over.Lux assay_result=1.75
substance="HSPG2_2331 (ANLAYPAGSTQPIR; listed as Homo sapiens)" observed_property=logFC.mWT.over.Lux assay_result=2.07
substance="HSPG2_3647 ([pGlu]GKVKAFAHLQVPER; listed as Homo sapiens)" observed_property=logFC.mWT.over.Lux assay_result=0.96
substance="HSPG2_275 (LLPGSVR; listed as Homo sapiens)" observed_property=logFC.mWT.over.Lux assay_result=2.87
substance="PDLIM4_104 (IDPEIQDGSPTTSR; listed as Homo sapiens)" observed_property=logFC.mWT.over.Lux assay_result=1.00
substance="FN1_1143 (LTPGVEYVYTIQVLR; listed as Homo sapiens)" observed_property=logFC.mWT.over.Lux assay_result=0.85
substance="LTBP2_533 (SGEPPRPLPPAAPR; listed as Homo sapiens)" observed_property=logFC.mWT.over.Lux assay_result=1.34
substance="FN1_1656 (SSSPVTGYR; listed as Homo sapiens)" observed_property=logFC.mWT.over.Lux assay_result=1.44
substance="LTBP2_1584 (SSEVYAQLCNVAR; listed as Homo sapiens)" observed_property=logFC.mWT.over.Lux assay_result=1.40

// provenance: patent US20240368668A1
